Measured inhibition at 7.5 min, 100 μM by item
Test system: CYP2C9
Assay: in vitro
Settings: Sprague-Dawley, rat, microsomes, pH 7.4
assay metric: inhibition at 7.5 min, 100 μM (%)

molecule: O=c1c(-c2ccc(O)cc2)coc2cc(O[C@@H]3O[C@H](CO)[C@@H](O)[C@H](O)[C@H]3O)ccc12 [Daidzin]
scale unit: %
value observed: -1.33
//
molecule: C[C@@H]1O[C@@H](Oc2c(-c3ccc(O)c(O)c3)oc3cc(O)cc(O)c3c2=O)[C@H](O)[C@H](O)[C@H]1O [Quercitrin]
scale unit: %
value observed: 13.5
//
molecule: O=c1c(O)c(-c2ccc(O)c(O)c2)oc2cc(O)cc(O)c12 [quercetin]
scale unit: %
value observed: 91.9

###

Tested on: CYP2C9
Assay: in vitro
Details: Sprague-Dawley, rat, microsomes, pH 7.4, % inhibition of tolbutamide metabolism in microsomes, 100 μM; reaction time 7.5 minute, n = 3

molecule: O=c1c(-c2ccc(O)cc2)coc2cc(O)cc(O)c12
scale unit: %
inhibition at 7.5 min, 100 μM: 82.7

###

Items are presented alongside their recorded inhibition at 7.5 min, 10 μM.
Test system: CYP2C9
Test: in vitro
Conditions: Sprague-Dawley, rat, microsomes, pH 7.4, % inhibition of CYP2C9 activity

compound: C=CC(=C)CCC=C(C)C [β-Myrcene]
scale unit: %
inhibition at 7.5 min, 10 μM: 16.6

compound: O=c1c(O)c(-c2cc(O)c(O)c(O)c2)oc2cc(O)cc(O)c12 [myricetin]
scale unit: %
inhibition at 7.5 min, 10 μM: 10.6

compound: COc1ccc([C@@H]2CC(=O)c3c(O)cc(O)cc3O2)cc1O [Hesperetin]
scale unit: %
inhibition at 7.5 min, 10 μM: 29.1

compound: O=c1c(-c2ccc(O)cc2)coc2c([C@@H]3O[C@H](CO)[C@@H](O)[C@H](O)[C@H]3O)c(O)ccc12 [Puerarin]
scale unit: %
inhibition at 7.5 min, 10 μM: 39

compound: O=C(O)/C=C/c1ccccc1 [trans-cinnamic acid]
scale unit: %
inhibition at 7.5 min, 10 μM: 15.8

compound: COc1cc(O)c2c(=O)cc(-c3ccc(O)cc3)oc2c1 [Genkwanin]
scale unit: %
inhibition at 7.5 min, 10 μM: 37.4

compound: O=C(O)c1ccc(O)c(O)c1 [protocatechuic acid]
scale unit: %
inhibition at 7.5 min, 10 μM: 16.2

compound: C[C@@H]1O[C@@H](OC[C@H]2O[C@@H](Oc3c(-c4ccc(O)c(O)c4)oc4cc(O)cc(O)c4c3=O)[C@H](O)[C@@H](O)[C@@H]2O)[C@H](O)[C@H](O)[C@H]1O [Rutin]
scale unit: %
inhibition at 7.5 min, 10 μM: -14

compound: COc1ccc(-c2oc3cc(O)cc(O)c3c(=O)c2O)cc1O [Tamarixetin]
scale unit: %
inhibition at 7.5 min, 10 μM: 88.1

compound: O=c1cc(-c2ccc(O)cc2)oc2cc(O)c([C@@H]3O[C@H](CO)[C@@H](O)[C@H](O)[C@H]3O)c(O)c12 [isovitexin]
scale unit: %
inhibition at 7.5 min, 10 μM: 37.4

compound: O=C(CCc1ccc(O)cc1)c1c(O)cc(O)cc1O [Phloretin]
scale unit: %
inhibition at 7.5 min, 10 μM: 34.4

compound: C=C[C@H]1[C@H](O[C@@H]2O[C@H](CO)[C@@H](O)[C@H](O)[C@H]2O)OC=C2C(=O)OCC[C@]21O [Swertiamarin]
scale unit: %
inhibition at 7.5 min, 10 μM: 16.6

compound: CC(Cc1ccc(O)c(O)c1)C(C)Cc1ccc(O)c(O)c1 (centres unmarked) [Nordihydroguaiaretic acid]
scale unit: %
inhibition at 7.5 min, 10 μM: 9.76

compound: COc1ccc(-c2cc(=O)c3c(O)cc(O[C@@H]4O[C@H](CO[C@@H]5O[C@@H](C)[C@H](O)[C@@H](O)[C@H]5O)[C@@H](O)[C@H](O)[C@H]4O)cc3o2)cc1O [Diosmin]
scale unit: %
inhibition at 7.5 min, 10 μM: 4.7

compound: CC(C)[C@@H](C)/C=C/[C@@H](C)[C@H]1CC[C@H]2C3=CC=C4C[C@@H](O)CC[C@]4(C)[C@H]3CC[C@]12C [ergosterol]
scale unit: %
inhibition at 7.5 min, 10 μM: 8.12

compound: O=C1C[C@@H](c2ccc(O)c(O)c2)Oc2cc(O)cc(O)c21 [eriodictyol]
scale unit: %
inhibition at 7.5 min, 10 μM: 28.6

compound: CCCCCCCCCCCC1=C(O)C(=O)C=C(O)C1=O [Embelin]
scale unit: %
inhibition at 7.5 min, 10 μM: 11.2

compound: O=c1cc(-c2ccc(O)c(O)c2)oc2cc(O)cc(O)c12 [luteolin]
scale unit: %
inhibition at 7.5 min, 10 μM: 37.9

compound: O=c1c(O)c(-c2ccc(O)cc2)oc2cc(O)cc(O)c12 [kaempferol]
scale unit: %
inhibition at 7.5 min, 10 μM: 38.3

compound: O=C1C[C@@H](c2ccc(O[C@@H]3O[C@H](CO)[C@@H](O)[C@H](O)[C@H]3O)cc2)Oc2cc(O)ccc21 [Liquiritin]
scale unit: %
inhibition at 7.5 min, 10 μM: 18.4

compound: CC1(C)[C@@H](O[C@H]2O[C@H](C(=O)O)[C@@H](O)[C@H](O)[C@H]2O[C@@H]2O[C@H](C(=O)O)[C@@H](O)[C@H](O)[C@H]2O)CC[C@]2(C)[C@H]3C(=O)C=C4[C@@H]5C[C@@](C)(C(=O)O)CC[C@]5(C)CC[C@@]4(C)[C@]3(C)CC[C@@H]12 [glycyrrhizin]
scale unit: %
inhibition at 7.5 min, 10 μM: 2.23

compound: O=c1ccc2ccc(O)cc2o1 [Umbelliferone]
scale unit: %
inhibition at 7.5 min, 10 μM: -6.64

compound: C[C@@]12C[C@@]3(O)O[C@@H](O1)[C@]1(COC(=O)c4ccccc4)[C@H]3C[C@@]12O[C@@H]1O[C@H](CO)[C@@H](O)[C@H](O)[C@H]1O [paeoniflorin]
scale unit: %
inhibition at 7.5 min, 10 μM: 0.7

compound: COc1ccc(-c2coc3cc(O)ccc3c2=O)cc1 [Formononetin]
scale unit: %
inhibition at 7.5 min, 10 μM: 30.6

compound: O=c1c(O[C@@H]2O[C@H](CO)[C@@H](O)[C@H](O)[C@H]2O)c(-c2ccc(O)c(O)c2)oc2cc(O)cc(O)c12 [isoquercitrin]
scale unit: %
inhibition at 7.5 min, 10 μM: 27

compound: O=c1c(O)c(-c2ccc(O)cc2O)oc2cc(O)cc(O)c12 [Morin]
scale unit: %
inhibition at 7.5 min, 10 μM: 11.6

compound: O=C(O)c1cc(O)c(O)c(O)c1 [gallic acid]
scale unit: %
inhibition at 7.5 min, 10 μM: -2.47

compound: O=c1c(-c2ccc(O)cc2)coc2cc(O)ccc12 [Daidzein]
scale unit: %
inhibition at 7.5 min, 10 μM: 13.4

compound: COc1ccc([C@@H]2CC(=O)c3c(O)cc(O[C@@H]4O[C@H](CO)[C@@H](O)[C@H](O)[C@H]4O[C@@H]4O[C@@H](C)[C@H](O)[C@@H](O)[C@H]4O)cc3O2)cc1 [Poncirin]
scale unit: %
inhibition at 7.5 min, 10 μM: 16.3

###

Tested on: CYP2C9
Test: in vitro
Conditions: Sprague-Dawley, rat, microsomes, pH 7.4, % inhibition of CYP2C9 activity

molecule: O=c1c(-c2ccc(O)cc2)coc2cc(O)ccc12
inhibition at 7.5 min, 25 μM: 15.7%

molecule: O=c1cc(-c2ccccc2)oc2cc(O)c(O)c(O)c12
inhibition at 7.5 min, 25 μM: 5.06%

molecule: O=C(O)[C@H]1O[C@@H](Oc2cc3oc(-c4ccccc4)cc(=O)c3c(O)c2O)[C@H](O)[C@@H](O)[C@@H]1O
inhibition at 7.5 min, 25 μM: 7.77%

molecule: O=c1cc(-c2ccc(O)cc2)oc2cc(O)cc(O)c12
inhibition at 7.5 min, 25 μM: 76.9%

###

Below is a list of entries, each paired with its recorded % inhibition of CYP2C9 activity value.
Test system: CYP2C9
Conditions: test article 1 μM; tolbutamide 1 mM; rat liver microsomes
assay metric: % inhibition of CYP2C9 activity (%)

compound: C=C(C)C1CC=C(C)CC1 (single isomer, unassigned; (+)) [(+)-Limonene]
value observed: 14.12
--
compound: O=c1cc(-c2ccccc2)oc2ccc3ccccc3c12
value observed: 2.35
--
compound: O=C1C[C@@H](c2ccc(O)cc2)Oc2cc(O)cc(O)c21
value observed: 5.20
--
compound: O=c1cc(-c2ccc(O)c(O)c2)oc2cc(O)c([C@@H]3O[C@H](CO)[C@@H](O)[C@H](O)[C@H]3O)c(O)c12
value observed: 3.37
--
compound: COc1ccc([C@@H]2CC(=O)c3c(O)cc(O[C@@H]4O[C@H](CO[C@@H]5O[C@@H](C)[C@H](O)[C@@H](O)[C@H]5O)[C@@H](O)[C@H](O)[C@H]4O)cc3O2)cc1O
value observed: 2.57

These entries and their values trace back to patent US20130184227A1.
